Where these numbers come from: a melting point compilation (Tetko et al.; mined from patent text by program, amines drawn as free bases though some values may be those of a salt)

For each record, write down the corresponding melting point.

Recorded results for 10 compounds are shown here.
[
  {
    "Compound": "CC(=O)c1cc(NC(=O)c2ccccc2)cc(C(C)=O)c1",
    "melting point": "188 to 189 °C"
  },
  {
    "Compound": "CSc1sc(C(N)=O)c2c1-c1sc(-c3ccccc3)cc1CC2",
    "melting point": "192 to 193 °C"
  },
  {
    "Compound": "CC(=O)OC1C=C(C)C(=O)CC(C)(C)C1OC(=O)c1ccccc1 (configuration not stated)",
    "melting point": "86 to 87 °C"
  },
  {
    "Compound": "Nc1sc2c(c1C(=O)c1ccc(Cl)c3ccccc13)CCCC2",
    "melting point": "179 to 181 °C"
  },
  {
    "Compound": "Oc1cccc(C=Cc2ccc3ccccc3n2)c1",
    "melting point": "210 to 212 °C"
  },
  {
    "Compound": "O=C(O)Cn1ncc(-c2ccccc2)c1-c1ccccc1",
    "melting point": "169 to 170 °C"
  },
  {
    "Compound": "CC(C)=NOCc1nc2c(N)nc(C)c(C)c2n1CCCCN(C(N)=O)C1CCCCC1",
    "melting point": "210 to 212 °C"
  },
  {
    "Compound": "Cc1ccc(NC(=O)C2C(=O)C3CC[C@](C)(C2=O)C3(C)C)cc1 (some centres not stated)",
    "melting point": "80 to 82 °C"
  },
  {
    "Compound": "Cc1cc(O)nc(N(C)C#N)n1",
    "melting point": "290 °C"
  },
  {
    "Compound": "Cc1nc2n(C)c(C)cn2c(=O)c1CCBr",
    "melting point": "125 °C"
  }
]

Below are some compounds; for each one, tell me its melting point.
1. C[C@@H](SCCc1nccn1C)[C@](O)(Cn1cncn1)c1ccc(F)cc1F (racemic)
2. NC(=O)CN1C(=O)OCc2cc(Br)ccc21
3. O=C(c1cc(C2=CC3CCC(C2)N3)ccn1)N(O)Cc1ccccc1 (configuration not stated)
4. COC(=O)c1cnc2c(C)cc(C)cc2c1-c1ccccc1Cl
5. Cc1nnc(CCl)n1-c1ccc(Cl)cc1C(=O)c1ccccc1
6. Nc1ccc(OS(=O)(=O)c2ccc(NCCO)cc2)cc1[N+](=O)[O-]

stdout:
175 to 176 °C
253 to 254 °C
95 to 100 °C
117 to 118 °C
139 to 140 °C
180 °C
